Tested on: MCF7
Assay: Anticancer activity against human MCF7 cells assessed as reduction in cell viability after 96 hrs by MTT assay
Format: functional, cell-based
Conditions: MCF7, 96 h
Please provide measured IC50 for the entries that follow.
Answers are plain numbers, in µM.

O=C1Nc2ccccc2/C1=N/N=C1\CC2(CCCCC2)Oc2c1ccc1ccccc21 : 5.11
O=C1CC2(CCCCC2)Oc2c1ccc1ccccc21 : 10.7
S=C(N/N=C1\CC2(CCCCC2)Oc2c1ccc1ccccc21)N1CCOCC1 : 11.9
CN1CCN(C(=S)N/N=C2\CC3(CCCCC3)Oc3c2ccc2ccccc32)CC1 : 11.7
N/N=C1\CC2(CCCCC2)Oc2c1ccc1ccccc21 : 9.74

Need IC50 for each of these molecules.
1. S=C(N/N=C1\CC2(CCCCC2)Oc2c1ccc1ccccc21)N1CCNCC1
2. S=C(N/N=C1\CC2(CCCCC2)Oc2c1ccc1ccccc21)NC1CCCCC1
3. CNC(=O)c1cc(Oc2ccc(NC(=O)Nc3ccc(Cl)c(C(F)(F)F)c3)cc2)ccn1 [SORAFENIB]
4. CSC(=S)N/N=C1\CC2(CCCCC2)Oc2c1ccc1ccccc21

(A)
14.2
15.1
3.64
5.1

(Q) Retrieve IC50 measured for S=C(N/N=C1\CC2(CCCCC2)Oc2c1ccc1ccccc21)N1CCCCC1 and print it.
(A) 13.3

* * *

Please provide measured pIC50 for the entries that follow.
Test system: HT-29
Experiment: Anticancer activity against human HT-29 cells assessed as reduction in cell viability after 96 hrs by MTT assay
Type: functional, cell-based
Details: HT-29, 96 h
Answers are plain numbers, as −log10 of the molar value.

Please review the following examples before continuing.
O=C1Nc2ccccc2/C1=N/N=C1\CC2(CCCCC2)Oc2c1ccc1ccccc21 : 5.12
S=C(N/N=C1\CC2(CCCCC2)Oc2c1ccc1ccccc21)NC1CCCCC1 : 5.13
Cc1ccc(NC(=O)N/N=C2\CC3(CCCCC3)Oc3c2ccc2ccccc32)cc1 : 5.15

Need pIC50 for each of these compounds.
1. S=C(N/N=C1\CC2(CCCCC2)Oc2c1ccc1ccccc21)N1CCOCC1
2. O=C1CC2(CCCCC2)Oc2c1ccc1ccccc21
3. S=C(N/N=C1\CC2(CCCCC2)Oc2c1ccc1ccccc21)N1CCNCC1
4. S=C(N/N=C1\CC2(CCCCC2)Oc2c1ccc1ccccc21)N1CCCCC1
5. O=C(N/N=C1\CC2(CCCCC2)Oc2c1ccc1ccccc21)Nc1ccc(Cl)cc1
6. O=C(N/N=C1\CC2(CCCCC2)Oc2c1ccc1ccccc21)Nc1ccccc1
7. N/N=C1\CC2(CCCCC2)Oc2c1ccc1ccccc21
8. CN1CCN(C(=S)N/N=C2\CC3(CCCCC3)Oc3c2ccc2ccccc32)CC1

(A)
5.03
5.21
5.08
5.17
5.13
5.32
5.00
5.09

Need pIC50 for each of these compounds.
1. CSC(=S)N/N=C1\CC2(CCCCC2)Oc2c1ccc1ccccc21
2. O=C1c2ccccc2C(=O)N1/N=C1\CC2(CCCCC2)Oc2c1ccc1ccccc21
3. CNC(=O)c1cc(Oc2ccc(NC(=O)Nc3ccc(Cl)c(C(F)(F)F)c3)cc2)ccn1 [SORAFENIB]

(A)
5.38
5.08
5.40

* * *

Please provide measured IC50 for the entries that follow.
Tested on: MCF7
Test: Anticancer activity against human MCF7 cells assessed as reduction in cell viability after 96 hrs by MTT assay
Assay type: functional, cell-based
Details: MCF7, 96 h
Give bare numbers, in µM.

Please review the following examples before continuing.
O=C(N/N=C1\CC2(CCCCC2)Oc2c1ccc1ccccc21)Nc1ccc(Cl)cc1 : 15
Cc1ccc(NC(=O)N/N=C2\CC3(CCCCC3)Oc3c2ccc2ccccc32)cc1 : 9.07
O=C(N/N=C1\CC2(CCCCC2)Oc2c1ccc1ccccc21)Nc1ccccc1 : 12

Below: the item to evaluate.
(Q) Retrieve IC50 measured for O=C1c2ccccc2C(=O)N1/N=C1\CC2(CCCCC2)Oc2c1ccc1ccccc21 and print it.
(A) 12.1

* * *

System: A549
Assay: Anticancer activity against human A549 cells assessed as reduction in cell viability after 96 hrs by MTT assay
Format: functional, cell-based
Settings: A549, 96 h
RECORDED ENDPOINT: pIC50
One number for each entry, as −log10 of the molar value.

S=C(N/N=C1\CC2(CCCCC2)Oc2c1ccc1ccccc21)NC1CCCCC1 : 5.04
S=C(N/N=C1\CC2(CCCCC2)Oc2c1ccc1ccccc21)N1CCNCC1 : 4.92
O=C(N/N=C1\CC2(CCCCC2)Oc2c1ccc1ccccc21)Nc1ccc(Cl)cc1 : 5.02
CSC(=S)N/N=C1\CC2(CCCCC2)Oc2c1ccc1ccccc21 : 5.40
O=C(N/N=C1\CC2(CCCCC2)Oc2c1ccc1ccccc21)Nc1ccccc1 : 5.09

Need pIC50 for each of these molecules.
1. Cc1ccc(NC(=O)N/N=C2\CC3(CCCCC3)Oc3c2ccc2ccccc32)cc1
2. S=C(N/N=C1\CC2(CCCCC2)Oc2c1ccc1ccccc21)N1CCOCC1
3. O=C1CC2(CCCCC2)Oc2c1ccc1ccccc21

(A)
[5.08, 5.00, 4.98]

Need pIC50 for each of these molecules.
1. CNC(=O)c1cc(Oc2ccc(NC(=O)Nc3ccc(Cl)c(C(F)(F)F)c3)cc2)ccn1
2. O=C1Nc2ccccc2/C1=N/N=C1\CC2(CCCCC2)Oc2c1ccc1ccccc21
3. O=C1c2ccccc2C(=O)N1/N=C1\CC2(CCCCC2)Oc2c1ccc1ccccc21
4. CN1CCN(C(=S)N/N=C2\CC3(CCCCC3)Oc3c2ccc2ccccc32)CC1
5. C#Cc1cccc(Nc2ncnc3cc(OCCOC)c(OCCOC)cc23)c1
6. N/N=C1\CC2(CCCCC2)Oc2c1ccc1ccccc21
7. S=C(N/N=C1\CC2(CCCCC2)Oc2c1ccc1ccccc21)N1CCCCC1

(A)
5.21
4.95
4.91
4.98
4.76
4.89
4.94

Every entry's value here was drawn from ChEMBL document CHEMBL4229351.
